Source listed as patent US20170081400A1.

# TARGET ENTITY: T1, human TL1A extracellular domain with N-terminal HIS and FLAG tag (human, UniProt O95150 72-251)
# T1 sequence: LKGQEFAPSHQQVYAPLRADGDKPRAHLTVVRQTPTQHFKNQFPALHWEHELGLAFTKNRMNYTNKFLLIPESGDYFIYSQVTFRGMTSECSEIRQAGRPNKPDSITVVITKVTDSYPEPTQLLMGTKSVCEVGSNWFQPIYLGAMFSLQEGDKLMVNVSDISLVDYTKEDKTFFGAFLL
# PROTOCOL SUMMARY: cell-based or functional assay
ENDPOINT: Fold improvement over 320-179, TL1A induced caspase potency assay in TF-1 cells (fold)
The reply should contain only the number, in fold.

Example binders with recorded Fold improvement over 320-179, TL1A induced caspase potency assay in TF-1 cells:
320-594 (antibody, human IgG1, name in Kabat numbering, V domains shown, full-length human IgG1, lambda) VH: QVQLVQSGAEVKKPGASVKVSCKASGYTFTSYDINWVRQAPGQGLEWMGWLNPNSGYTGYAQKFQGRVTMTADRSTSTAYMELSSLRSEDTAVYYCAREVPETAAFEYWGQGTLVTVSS VL: QSVLTQPPSVSGAPGQRVTISCTSSSSDIGAGQGVHWYQQLPGTAPKLLIEGYYNRPSGVPDRFSGSKSGTSASLTITGLLPEDEGDYYCQSWDGTLSALFGGGTKLTVLG    12
320-584 (antibody, human IgG1, name in Kabat numbering, V domains shown, full-length human IgG1, lambda) VH: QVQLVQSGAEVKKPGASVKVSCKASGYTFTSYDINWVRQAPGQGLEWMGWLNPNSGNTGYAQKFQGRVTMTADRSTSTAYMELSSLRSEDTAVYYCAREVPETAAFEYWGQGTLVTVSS VL: QSVLTQPPSVSGAPGQRVTISCTSSSSDIGAGSGVHWYQQLPGTAPKLLIEGYYNRPSGVPDRFSGSKSGTSASLTITGLLPEDEGDYYCQSWDGTLSALFGGGTKLTVLG    10

Ask | Fold improvement over 320-179, TL1A induced caspase potency assay in TF-1 cells lookup needed for 320-592 (antibody, human IgG1, name in Kabat numbering, V domains shown, full-length human IgG1, lambda) VH: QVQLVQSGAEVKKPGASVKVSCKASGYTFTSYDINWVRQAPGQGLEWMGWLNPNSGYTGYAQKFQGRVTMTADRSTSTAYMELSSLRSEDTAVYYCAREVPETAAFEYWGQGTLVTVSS VL: QSVLTQPPSVSGAPGQRVTISCTSSSSDIGAALGVHWYQQLPGTAPKLLIEGYYNRPSGVPDRFSGSKSGTSASLTITGLLPEDEGDYYCQSWDGTLSALFGGGTKLTVLG , thanks.
Reply | 7
